# Target System: Cannabinoid receptor (Mus musculus) (UniProt P47746+P47936)
# Sequence (P47746 whole entry, looked up): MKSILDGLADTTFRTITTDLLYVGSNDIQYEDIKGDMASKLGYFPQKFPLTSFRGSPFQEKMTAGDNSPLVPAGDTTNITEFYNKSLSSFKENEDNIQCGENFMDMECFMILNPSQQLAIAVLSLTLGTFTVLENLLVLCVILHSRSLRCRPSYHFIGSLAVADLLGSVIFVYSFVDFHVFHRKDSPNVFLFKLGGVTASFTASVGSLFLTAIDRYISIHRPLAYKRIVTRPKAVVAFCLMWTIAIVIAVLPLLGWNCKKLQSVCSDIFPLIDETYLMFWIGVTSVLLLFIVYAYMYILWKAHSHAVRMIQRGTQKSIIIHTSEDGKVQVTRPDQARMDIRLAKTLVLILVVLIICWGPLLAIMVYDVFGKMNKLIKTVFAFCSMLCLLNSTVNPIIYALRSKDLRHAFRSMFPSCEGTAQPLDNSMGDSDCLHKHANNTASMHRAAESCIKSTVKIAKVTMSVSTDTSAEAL
# Sequence (P47936 whole entry, looked up): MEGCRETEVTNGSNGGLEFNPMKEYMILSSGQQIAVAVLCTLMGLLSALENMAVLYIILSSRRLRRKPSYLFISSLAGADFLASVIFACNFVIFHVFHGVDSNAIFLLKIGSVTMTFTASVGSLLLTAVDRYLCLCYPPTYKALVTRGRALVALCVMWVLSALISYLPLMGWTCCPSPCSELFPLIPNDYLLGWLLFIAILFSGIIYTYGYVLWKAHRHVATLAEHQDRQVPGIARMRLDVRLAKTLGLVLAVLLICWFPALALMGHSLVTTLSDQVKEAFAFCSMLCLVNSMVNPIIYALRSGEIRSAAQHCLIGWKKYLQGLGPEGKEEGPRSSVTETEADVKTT
# Method Description: Agonist activity at cannabinoid receptor in ICR mouse vas deferens assessed as inhibition of electrically induced contractions at 2.7 x 10^-6 M after 10 mins in presence of CB1 antagonist AM251 relative to control
# Format: protein assay

{"Smiles Notation": "O=C(Cc1ccc(Cl)cc1)n1nc(OCCCN2CCCCC2)c2ccccc21", "inhibition": "12.4%"}
{"Smiles Notation": "O=C(c1cccc2ccccc12)n1nc(OCCCN2CCCCC2)c2ccccc21", "inhibition": "-2.4%"}
{"Smiles Notation": "Cc1c(C(=O)c2cccc3ccccc23)c2cccc3c2n1[C@H](CN1CCOCC1)CO3", "inhibition": "11.5%"}
{"Smiles Notation": "O=C(c1cccc(Cl)c1Cl)n1nc(OCCN2CCCC2)c2ccccc21", "inhibition": "13%"}

----------
# Target System: Cholinesterase (Homo sapiens, UniProt P06276)
# Sequence (P06276 whole entry): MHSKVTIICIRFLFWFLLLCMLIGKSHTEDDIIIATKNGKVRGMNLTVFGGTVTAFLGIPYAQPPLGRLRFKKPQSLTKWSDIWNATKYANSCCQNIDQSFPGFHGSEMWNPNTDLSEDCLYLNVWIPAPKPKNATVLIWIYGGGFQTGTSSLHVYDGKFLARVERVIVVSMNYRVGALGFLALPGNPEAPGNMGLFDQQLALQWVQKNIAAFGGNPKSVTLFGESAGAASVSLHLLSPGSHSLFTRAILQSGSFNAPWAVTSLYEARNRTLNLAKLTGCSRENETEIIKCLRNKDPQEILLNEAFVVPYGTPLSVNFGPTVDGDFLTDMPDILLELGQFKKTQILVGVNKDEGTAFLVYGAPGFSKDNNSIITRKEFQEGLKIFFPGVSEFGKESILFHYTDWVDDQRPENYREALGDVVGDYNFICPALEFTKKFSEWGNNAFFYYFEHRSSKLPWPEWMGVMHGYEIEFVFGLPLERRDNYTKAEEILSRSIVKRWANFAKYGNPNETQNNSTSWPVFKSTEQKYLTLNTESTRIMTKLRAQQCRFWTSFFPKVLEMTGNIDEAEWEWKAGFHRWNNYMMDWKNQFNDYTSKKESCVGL
# Method Description: Inhibition of human serum BChE using butyrylthiocholine as substrate by Ellman's assay
pIC50: −log10 of the molar value.
Rule: Met for pIC50 not less than 6, Not met for anything less.

{"Smiles Notation": "O=C(c1ccc2ccccc2c1)n1nc(OCCN2CCCCC2)c2ccccc21", "Label": "Not met"}
{"Smiles Notation": "COc1ccc(CC(=O)n2nc(OCCCN3CCCCC3)c3ccccc32)cc1", "Label": "Not met"}
{"Smiles Notation": "Cc1cc(C)c(C(=O)n2nc(OCCN3CCCCC3)c3ccccc32)c(C)c1", "Label": "Met"}
{"Smiles Notation": "O=C(c1cccc2ccccc12)n1nc(OCCN2CCCCC2)c2ccccc21", "Label": "Met"}
{"Smiles Notation": "O=C(c1c(F)ccc(F)c1F)n1nc(OCCN2CCCCC2)c2ccccc21", "Label": "Not met"}
{"Smiles Notation": "O=C(c1cccc(Cl)c1Cl)n1nc(OCCCN2CCCCC2)c2ccccc21", "Label": "Met"}
{"Smiles Notation": "O=C(c1ccc2ccccc2c1)n1nc(OCCCN2CCCCC2)c2ccccc21", "Label": "Not met"}
{"Smiles Notation": "O=C(c1ccccc1Cl)n1nc(OCCCN2CCCCC2)c2ccccc21", "Label": "Met"}
{"Smiles Notation": "O=C(c1cccc(Cl)c1Cl)n1nc(OCCN2CCCC2)c2ccccc21", "Label": "Met"}
{"Smiles Notation": "O=C(Cc1ccc(Cl)cc1)n1nc(OCCCN2CCCCC2)c2ccccc21", "Label": "Not met"}

----------
# Target System: Cannabinoid receptor (Mus musculus) (UniProt P47746+P47936)
# Method Description: Agonist activity at cannabinoid receptor in ICR mouse vas deferens assessed as inhibition of electrically induced contractions at 1.82 x 10^-5 M after 10 mins in presence of CB2 antagonist AM630 relative to control
# Type: protein assay

{"Smiles Notation": "O=C(c1cccc(Cl)c1Cl)n1nc(OCCCN2CCCCC2)c2ccccc21", "Target System": "Cannabinoid receptor (Mus musculus) (UniProt P47746+P47936)", "Readout Units": "%", "inhibition": 85.5}
{"Smiles Notation": "O=C(c1ccccc1Cl)n1nc(OCCN2CCCC2)c2ccccc21", "Target System": "Cannabinoid receptor (Mus musculus) (UniProt P47746+P47936)", "Readout Units": "%", "inhibition": 29.3}
{"Smiles Notation": "O=C(c1ccccc1OCc1ccccc1)n1nc(OCCN2CCCC2)c2ccccc21", "Target System": "Cannabinoid receptor (Mus musculus) (UniProt P47746+P47936)", "Readout Units": "%", "inhibition": 76.7}
{"Smiles Notation": "Cc1cc(C)c(C(=O)n2nc(OCCN3CCCCC3)c3ccccc32)c(C)c1", "Target System": "Cannabinoid receptor (Mus musculus) (UniProt P47746+P47936)", "Readout Units": "%", "inhibition": 1.3}
{"Smiles Notation": "O=C(Cc1ccc(Cl)cc1)n1nc(OCCCN2CCCCC2)c2ccccc21", "Target System": "Cannabinoid receptor (Mus musculus) (UniProt P47746+P47936)", "Readout Units": "%", "inhibition": 96.1}
{"Smiles Notation": "COc1ccc(CC(=O)n2nc(OCCCN3CCCCC3)c3ccccc32)cc1", "Target System": "Cannabinoid receptor (Mus musculus) (UniProt P47746+P47936)", "Readout Units": "%", "inhibition": 94.3}
{"Smiles Notation": "O=C(c1ccccc1OCc1ccccc1)n1nc(OCCCN2CCCCC2)c2ccccc21", "Target System": "Cannabinoid receptor (Mus musculus) (UniProt P47746+P47936)", "Readout Units": "%", "inhibition": 77.5}
{"Smiles Notation": "Cc1c(C(=O)c2cccc3ccccc23)c2cccc3c2n1[C@H](CN1CCOCC1)CO3", "Target System": "Cannabinoid receptor (Mus musculus) (UniProt P47746+P47936)", "Readout Units": "%", "inhibition": 68.9}
{"Smiles Notation": "O=C(c1cccc(Cl)c1Cl)n1nc(OCCN2CCCC2)c2ccccc21", "Target System": "Cannabinoid receptor (Mus musculus) (UniProt P47746+P47936)", "Readout Units": "%", "inhibition": 52.9}
